Target: Opioid receptor (Rattus norvegicus, UniProt P33533+P34975+P33535)
Test: Displacement of [3H]naloxone from Sprague-Dawley rat cerebellum opioid receptor assessed as relative receptor affinity by scintillation counting
Assay type: protein assay
Strictly below 0.6 µM in IC50: y. Otherwise: n.

molecule | qualitative_label
CN1CCC2(c3ccccc3)CC1Cc1ccccc12.O=C(O)C(O)C(O)C(=O)O (single isomer, unassigned; form 2) | n
C[C@H]1[C@H]2Cc3ccc(O)cc3[C@]1(c1ccccc1)CC[N+]2(C)C.[I-] | y
C[C@@H]1[C@@H]2Cc3ccc(O)cc3[C@@]1(c1ccccc1)CCN2C.Cl | n

# strict comparison: is reported IC50 < 0.6 µM? input = C[C@H]1[C@H]2Cc3ccc(O)cc3[C@]1(c1ccccc1)CCN2C.Cl
y
